Source of measurements: PubChem BioAssay AID1446

- test.summary: viability loss in Ba/F3 EpoR-JAK2V617F cells – cell-based, luminescence, JAK2V617F inhibitor project, primary screen (AID 1446);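 note: cytokine-independent growth of Ba/F3 cells driven by EpoR plus mutant JAK2; 0% = DMSO-treated cells and 100% = JAK inhibitor I control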
- test.conditions: ATP luminescence, at 5.6 µM, active compounds read high
The whole screen tested about 220,000 compounds, of which about 2,400 (1.1%) were called active. This is one part of a sample in which actives are shown more often than they occur.
So I've got a bunch of compounds here, and I need their inhibition values.
Numbers only, in %.

CCOC(=O)c1[nH]c2c(c1C)C(=O)CC(c1ccc(N(C)C)cc1)C2 (configuration not stated) ... 0.77
O=C(CCl)Nc1ccc(Sc2ccc(NC(=O)CCl)cc2)cc1 ... 39.2
COC(=O)C(C)Sc1nc2c(c(=O)n(C)c(=O)n2C)n1Cc1cccc(C)c1 (configuration not stated) ... -3.92
CSCC(NS(=O)(=O)c1ccc(C)cc1)C(=O)O (configuration not stated) ... -0.95
C=CCOC(=O)C1=C(C)NC(SCC(=O)OCC)=C(C#N)C1c1ccc(C)cc1 (configuration not stated) ... -0.33
CSc1nnc(-c2ccc(C(F)(F)F)cn2)o1 ... -4.69
CN(C)c1ccc(/C=N/N(Cc2ccccc2)c2ccccc2)cc1 ... 3.41
O=C(NNc1ccccn1)c1ccc(Cl)nc1 ... -0.88

For each of the items listed, what is its inhibition?
1. COc1ccc(Cn2c(=O)cc(C)[nH]c2=S)cc1
2. CCCCNc1nc2c(c(=O)n(C)c(=O)n2C)n1Cc1cccc(OC)c1
3. CCOc1cccc(-c2nnc3sc(COc4ccc(OC)cc4)nn23)c1
4. COc1ccc(Cc2cc(-c3ccc(F)cc3)n[nH]c2=O)cc1
5. O=C(CC(c1ccccc1)c1cc(Cl)ccc1O)NCCN1CCOCC1 (configuration not stated)
6. CN(C(=O)CSc1nnc(-c2n[nH]c3ccccc23)o1)c1ccccc1
7. CC(C)NC(=S)N1CCN(C(c2ccccc2)c2ccccc2)CC1
8. Cc1ccc(C2CC(=O)NC(SCC(=O)OCc3ccccc3)=C2C#N)o1 (configuration not stated)

Result:
[2.03, 52.4, -2.87, 1.71, -3.6, 2.55, 1.76, 1.77]

====

So I've got a bunch of compounds here, and I need their inhibition values.
- test.summary: viability loss in Ba/F3 EpoR-JAK2V617F cells – cell-based, luminescence, JAK2V617F inhibitor project, primary screen (AID 1446);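 note: cytokine-independent growth of Ba/F3 cells driven by EpoR plus mutant JAK2; 0% = DMSO-treated cells and 100% = JAK inhibitor I control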
- test.conditions: ATP luminescence, at 5.6 µM, active compounds read high
Among all 220,000 compounds or so, about 2,400 (1.1%) were called active. The entries come from a sample that favours actives as a whole.
One number for each entry, in %.

Reference set (8 entries):
COc1ccc(C(=O)CSc2nnc(NC(=O)C3CC(=O)N(c4cccc(OC)c4)C3)s2)cc1 (stereo not given) ... 0.22
Cn1c(N)c(C(=O)COC(=O)/C=C/c2ccc(OC(F)F)cc2)c(=O)n(C)c1=O ... 2.97
Cc1ccc(S(=O)(=O)Nc2ccc3ncccc3c2)cc1 ... 32.3
Cc1cc2oc(C(=O)Nc3c(C)n(C)n(-c4ccccc4)c3=O)c(C)c2cc1Cl ... -1.25
COc1ccc(C(=O)Nc2ccc(F)cc2F)cc1 ... -3.55
CN(C)c1ccc(Nc2c3c4c(cccc4n(C)c2=O)C(=O)c2ccccc2-3)cc1 ... 2.4
CCCn1c(NC(=O)C23CC4CC(CC(O)(C4)C2)C3)nc2ccccc21 ... 53
Cc1cc(C)cc(OCC(=O)Nc2ccc(S(=O)(=O)Nc3ccccn3)cc2)c1 ... -4.41

For each of the items listed, what is its inhibition?
1. CCOC(=O)N1CCN(S(=O)(=O)c2ccc(C(=O)Nc3ccc(F)cc3F)cc2)CC1
2. CCCC(NC(=O)c1ccco1)c1nc2ccccc2[nH]1 (stereo not given)

Result:
1. 54.4
2. 4.01
